test-details: in vitro
test-context: dog, liver microsomes
Non-standard residues stand in square brackets, D forms with d. Residues, ends and D or L forms follow the SMILES beside them. N(1-naphthylmethyl)Gly = O=C(O)CNCc1cccc2ccccc12; N(4-MeBn)Gly = Cc1ccc(CNCC(=O)O)cc1; NBuGly = CCCCNCC(=O)O
measurement-kind: half-life at 1 µM

Problem: Would you kindly share the measured half-life at 1 µM for CCCCN(CC(=O)N[C@@H](CCCCN)C(=O)N(CC(=O)N(CC(=O)N(CC(N)=O)Cc1cccc2ccccc12)Cc1ccc(C)cc1)Cc1cccc2ccccc12)C(=O)[C@H](CCCCN)NC(=O)[C@@H](N)CCCCN [Compound B1] (H-KK[NBuGly]K[N(1-naphthylmethyl)Gly][N(4-MeBn)Gly][N(1-naphthylmethyl)Gly]-NH2) ?
Result: > 2 h

----------
test-details: Plasma protein binding, rapid equilibrium dialysis
Assay type: in vitro ADME, dog
test-context: Beagle, dog, pH 7.4, % Average Recovery
Non-standard residues stand in square brackets, D forms with d. Residues, ends and D or L forms follow the SMILES beside them. N(1-naphthylmethyl)Gly = O=C(O)CNCc1cccc2ccccc12; N(4-MeBn)Gly = Cc1ccc(CNCC(=O)O)cc1; NBuGly = CCCCNCC(=O)O; Nlys = NCCCCNCC(=O)O
measurement-kind: recovery at 4 h, 30.8 µM

Problem: Consider the compound CCCCN(CC(N)=O)C(=O)CN(CCCCN)C(=O)CN(Cc1cccc2ccccc12)C(=O)CN(CCCCN)C(=O)CN(Cc1ccc(C)cc1)C(=O)CN(Cc1cccc2ccccc12)C(=O)CN(CCCCN)C(=O)CNCCCCN [Compound D2] (H-[Nlys][Nlys][N(1-naphthylmethyl)Gly][N(4-MeBn)Gly][Nlys][N(1-naphthylmethyl)Gly][Nlys][NBuGly]-NH2) and give its measured recovery at 4 h, 30.8 µM.
Result: > 70%

Problem: What do you get for CCCCN(CC(=O)N[C@@H](CCCCN)C(=O)N(CC(=O)N(CC(=O)N(CC(N)=O)Cc1cccc2ccccc12)Cc1ccc(C)cc1)Cc1cccc2ccccc12)C(=O)[C@H](CCCCN)NC(=O)[C@@H](N)CCCCN [Compound B1] (H-KK[NBuGly]K[N(1-naphthylmethyl)Gly][N(4-MeBn)Gly][N(1-naphthylmethyl)Gly]-NH2) ?
Result: > 70%

These entries and their values trace back to paper PMC6017477.
